Recorded CC50 at 48 h, one value per entry.
Test description: Cell viability assay (resazurin), Vero cells
Type: cell-based
Applied conditions: African green monkey, Vero cells; resazurin method; 48 h incubation; read-out: Cytotoxicity CC50 Vero

- Molecule: "COc1cc(CC(O)Cn2cncn2)ccc1OCc1ccccc1 (racemic) [Compound 22]"
  Measured property: "CC50 at 48 h"
  Experimental result: "> 1.3 mM"
- Molecule: "COc1cc(CC(O)Cn2cncn2)cc([N+](=O)[O-])c1OC (racemic) [Compound 21]"
  Measured property: "CC50 at 48 h"
  Experimental result: "> 1.3 mM"
- Molecule: "COc1cc(CC(O)Cn2ccnc2)cc([N+](=O)[O-])c1OC (racemic) [Compound 27]"
  Measured property: "CC50 at 48 h"
  Experimental result: "> 1.3 mM"
- Molecule: "COc1cc(CC(O)Cn2cncn2)cc([N+](=O)[O-])c1OCc1ccccc1 (racemic) [Compound 23]"
  Measured property: "CC50 at 48 h"
  Experimental result: "> 1.3 mM"
- Molecule: "COc1cc(CC(O)Cn2cncn2)cc([N+](=O)[O-])c1O (racemic) [Compound 19]"
  Measured property: "CC50 at 48 h"
  Experimental result: "> 1.3 mM"

The measured CC50 at 48 h associated with COc1ccc(CC(O)Cn2ccnn2)cc1OC (racemic) [Compound 32] reads > 1.3 mM

// CC50 at 48 h value for COc1cc(CC(O)Cn2ccnc2)cc([N+](=O)[O-])c1O (racemic) [Compound 25] : 0.86 mM

Record COc1cc(CC(O)Cn2ccnn2)ccc1O (racemic) [Compound 30] . Reported CC50 at 48 h: > 1.3 mM

// CC50 at 48 h value for COc1ccc(CC(O)Cn2cncn2)cc1OC (racemic) [Compound 20] : > 1.4 mM

====

Test description: Cell viability assay (resazurin), H9c2 cells
Type: cell-based
Applied conditions: rat, resazurin method, 48 h incubation, read-out: Cytotoxicity CC50 H9c2
Listing: CC50 at 48 h of selected compounds

Answered cases to consult:
- Compound: "COc1ccc(CC(O)Cn2ccnc2)cc1OC (racemic) [Compound 26]"
  CC50 at 48 h: "> 1300 µM"
- Compound: "COc1cc(CC(O)Cn2cncn2)cc([N+](=O)[O-])c1OC (racemic) [Compound 21]"
  CC50 at 48 h: "> 1300 µM"

Measured CC50 at 48 h of COc1cc(CC(O)Cn2ccnc2)cc([N+](=O)[O-])c1O (racemic) [Compound 25] : > 1300 µM

Lab note: COc1cc(CC(O)Cn2cncn2)cc([N+](=O)[O-])c1OCc1ccccc1 (racemic) [Compound 23] gave CC50 at 48 h of > 1300 µM
